Parameter pIC50: see the listing below.
Test system: rVSIV-ΔG-G pseudotype
method_notes: microbe, parasite or virus in culture
Assay type: cell-based, Vesicular stomatitis Indiana virus
test_conditions: Vesicular stomatitis Indiana virus, HEK293, 24 h, read-out: ICVSIV50
pIC50: −log10 of the molar value.
reported_metric: pIC50

>>> value_observed("CC1(C)[C@H]2CC[C@]1(C)[C@H](OC(=O)CCN1CCCC1)C2")
4.54
>>> value_observed("CC1CCN(CC(=O)O[C@@H]2C[C@@H]3CC[C@@]2(C)C3(C)C)CC1")
4.11
>>> value_observed("CC1CCN(CCC(=O)O[C@@H]2C[C@@H]3CC[C@@]2(C)C3(C)C)CC1")
4.10
>>> value_observed("CC1(C)[C@H]2CC[C@]1(C)[C@H](OC(=O)CN1CCNCC1)C2")
4.16
>>> value_observed("CC1(C)[C@H]2CC[C@]1(C)[C@H](OC(=O)CN1CCCCC1)C2")
3.99
>>> value_observed("CCN1CCN(CCC(=O)O[C@@H]2C[C@@H]3CC[C@@]2(C)C3(C)C)CC1")
3.97
>>> value_observed("CC1(C)[C@H]2CC[C@]1(C)[C@H](OC(=O)CCN1CCNCC1)C2")
3.99

---

Tested on: rVSIV-ΔG-MarV-GP pseudotype
method_notes: organism not typed
Format: cell-based, Marburg virus
test_conditions: HEK293, 24 h, read-out: ICMarV50
Just a reminder that ties go to no (0): only IC50 strictly below 80 µM counts as yes (1).

>>> discrete_label("COc1ccc(CCN(C)CCCC(C#N)(c2ccc(OC)c(OC)c2)C(C)C)cc1OC (stereo not shown) [Verapamil, reference compound]")
"yes (1)"
>>> discrete_label("CC1CCN(CCC(=O)O[C@@H]2C[C@@H]3CC[C@@]2(C)C3(C)C)CC1")
"yes (1)"
>>> discrete_label("CC1(C)[C@H]2CC[C@]1(C)[C@H](OC(=O)CN1CCCCC1)C2")
"no (0)"
>>> discrete_label("CC1(C)[C@H]2CC[C@]1(C)[C@H](OC(=O)CN1CCOCC1)C2")
"no (0)"
>>> discrete_label("CC1(C)[C@H]2CC[C@]1(C)[C@H](O)C2 [(–)-Borneol, reference compound]")
"no (0)"
>>> discrete_label("CN1CCN(CCC(=O)O[C@@H]2C[C@@H]3CC[C@@]2(C)C3(C)C)CC1")
"yes (1)"
>>> discrete_label("CC1(C)[C@H]2CC[C@]1(C)[C@H](OC(=O)CCN1CCCC1)C2")
"yes (1)"
>>> discrete_label("CC1(C)[C@H]2CC[C@]1(C)[C@H](OC(=O)CN1CCCC1)C2")
"yes (1)"
>>> discrete_label("CN1CCN(CC(=O)O[C@@H]2C[C@@H]3CC[C@@]2(C)C3(C)C)CC1")
"yes (1)"

# credit: paper PMC6072471
